The measurements presented in this section are drawn from PubChem BioAssay AID2289.

# assay text: qHTS Assay for Modulators of miRNAs and/or Inhibitors of miR-21; further: potency means the concentration at half of the fitted maximal effect; nearly all actives have a fitted effect of over 55% in size
# test settings: HeLa miR-21-FLuc reporter, luciferase luminescence, 48 h; actives lower the signal
About 3,300 (0.97%) of roughly 340,000 compounds were called active. About 9% were inconclusive and are not listed. The list shows a part of the results.
Would you mind telling me the reported Potency of each entry?

In plain terms, `Cc1ccc(OCC(=O)Nc2ccc3c(c2)OCO3)c([N+](=O)[O-])n1` has a documented Potency of 7.36 µM (active)

In plain terms, `Cc1cc(SCCOc2ccccc2)nc(N)n1` has a documented Potency of 16.5 µM (active)

In plain terms, `c1ccc(CSc2nnc3ccc(-c4cccs4)nn23)nc1` has a documented Potency of 7.36 µM (active)

In plain terms, `CCn1cnc2sc(C(=O)Nc3ccc4c(c3)OCO4)c(C)c2c1=O` has a documented Potency of 3.16 µM (active)

In plain terms, `COc1ccccc1/C=C/C=N/Nc1cccc(C(=O)O)c1` has a documented Potency of 0.185 µM (active)

In plain terms, `Cc1ccc(Cn2cnc3nc4c(cc3c2=O)CCCC4)cc1` has a documented Potency of 8.26 µM (active)

In plain terms, `CCN(CC)S(=O)(=O)c1ccc(-c2cn3ccc(C)cc3n2)cc1` has a documented Potency of 0.927 µM (active)

In plain terms, `CCCCNC(=O)c1cc(-c2ccc(F)cc2)on1` has a documented Potency of 3.29 µM (active)

In plain terms, `Cc1ccccc1/C=N/Nc1ncnc2nc[nH]c12` has a documented Potency of 6.56 µM (active)

In plain terms, `Cc1ccsc1/C=N/Nc1ncnc2nc[nH]c12` has a documented Potency of 3.29 µM (active)

In plain terms, `Cc1ccc(Nc2ncnc3sc(C)c(C)c23)cc1` has a documented Potency of 14.7 µM (active)

In plain terms, `Fc1ccccc1/C=N/Nc1ncnc2nc[nH]c12` has a documented Potency of 5.21 µM (active)
